From: PubChem BioAssay AID488857

measurementProtocol: ASC/caspase-1 reporter retest in S. cerevisiae at one dose, specificity check for NALP1 project (AID 488857)
runConditions: S. cerevisiae ASC/Caspase-1, beta-galactosidase luminescence, 24 h; at 10 µM; active compounds read high
About 560 (40%) of roughly 1,400 compounds were called active. The set was probably picked from earlier hits. This is one part of the list.
Exercise: for every item that follows, state its recorded inhibition.
Answer with a number only, understood to be in %.

Kindly note the recorded inhibition for c1ccc(-c2ccc(-c3cn4c(n3)CCC4)cc2)cc1 , which is 93.3

Lab book: inhibition of N#CC(C#N)=C(Nc1ccc(F)cc1)SCc1cccc(Br)c1 noted as 83.2

Briefly, inhibition measured for Cc1ccc(F)cc1NCC(=O)Nc1ccc(Br)cc1 : 41.2

inhibition reading for COC(=O)/C=C/C(=O)N1CCN(c2cccc(Cl)c2)CC1 : 62.8

The reported value for COc1cc2nc(Cl)nc(N3CCN(C)CC3)c2cc1OC in terms of inhibition is 30

According to the records, this compound C=CCOc1ccc2ccccc2c1/C=N/O displays inhibition of 64.3

For O=C(COc1ccc(CO)cc1Cl)Nc1ccc(F)cc1 the compound record lists inhibition as 38.2

// inhibition value for CC(OC(=O)Cc1c(F)cccc1Cl)C(=O)NCCC1=CCCCC1 (configuration not stated) : 46.8

Note to self: inhibition recorded for Cc1ccccc1OCC(=O)Nc1cccc(N(C)S(C)(=O)=O)c1 was 34.6

Measured inhibition of O=C(COC(=O)Cc1c(F)cccc1Cl)NCCC1=CCCCC1 : 61.6

Value of inhibition reported for the compound CC1(C)CCSC(/C=C/c2ccccc2)=N1 is 92

response.value for Cc1cc(C)cc(NS(=O)(=O)c2ccc(NC(=S)NC(=O)c3ccc(Br)o3)cc2)c1 (field: inhibition) = 43.1

----------
measurementProtocol: ASC/caspase-1 reporter retest in S. cerevisiae at one dose, specificity check for NALP1 project (AID 488857)
runConditions: S. cerevisiae ASC/Caspase-1, beta-galactosidase luminescence, 24 h; at 10 µM
Among all 1,400 compounds or so, about 560 (40%) were called active.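 The calls were made as follows: active = mean inhibition over duplicate tests at 10 µM above 50%; inactive = the rest.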 So high a share suggests a set chosen from earlier hits. Some of the results follow.
Thanks in advance; please answer with one of these: 1.0 (active), 0.0 (inactive)

Record request — test call for CCn1ncc([N+](=O)[O-])c1C(=O)Nc1ccc(C(=O)N2CCCCC2)cc1
0.0

Name the outcome recorded for CCCn1c(-c2cccnc2Cl)nc2cc(Cl)c(Cl)cc21 in the assay.
0.0

Please indicate how the test categorized Oc1c(Cl)cc(Cl)c(Cl)c1Cc1c(O)c(Cl)cc(Cl)c1Cl .
1.0

# fetch the recorded call for CCCc1cc(C(=O)Nc2cccc(Cl)c2)no1 here
1.0

Call for entry O=S(=O)(/C=C/c1ccccc1)NC1CCCCCCC1 :
1.0

Recorded call for C#C[C@]1(O)CC[C@H]2[C@@H]3CCC4=C(CCC(=O)C4)[C@H]3CC[C@@]21C ?
1.0

For CCn1ncc(C(=O)Nc2cccc(Cl)c2)c1C , which call appears in the assay record?
1.0

Please state the recorded outcome for this compound: CCCc1cc(C(=O)Nc2c(C)n(C)n(-c3ccccc3)c2=O)no1
0.0

Which outcome was entered for the compound CCCc1cc(C(=O)Nc2ccc(F)cc2F)no1 in this test?
0.0

Test call, this compound: CC12CCC(C(=O)O)(C/C1=N\O)C2(C)C (configuration not stated)
0.0

// param item: CCn1nccc1C(=O)Nc1ccc(Cl)cn1 ; yields the recorded call
0.0

Could you check what this test reported for CCCOc1ccc(OCCSc2ncccn2)cc1 ?
1.0
